Below, each entry is listed alongside its reported IFI.
- Method Description: NOVARTIS: Inhibition Frequency Index (IFI) - the number of HTS assays where a compound showed > 50% inhibition/induction, expressed as a percentage of the number of assays in which the compound was tested.
- Type: functional
Whole data set: some 5,400 compounds, median “IFI” near 2, cut for the highest 2% near 22. This is one part of a sample in which the highest values are shown more often than they occur.
Quantity: IFI

• CC[C@H]1CN2CCc3cc(OC)c(OC)cc3[C@@H]2C[C@@H]1C[C@H]1NCCc2cc(O)c(OC)cc21 = 32.3%
• CC1=CC(=O)OC[C@]23C[C@H](O)C(C)=C[C@H]2O[C@@H]2C[C@@H](OC(=O)C=CC=CC(=O)OCC1)[C@@]3(C)[C@]21CO1 = 22.6%
• C=CC12CCN(CC1)C(C(O)c1ccnc3ccc(OC)cc13)C2 (centres undefined) = 0%
• COc1cc2c(cc1O)CC[n+]1cc3c(OC)c(OC)ccc3cc1-2 = 0%
• CCN1C(=O)N(CC(N)=O)C(=O)C12CCN(Cc1ccc(N(C)c3ccccc3)cc1)CC2 = 3.85%
• c1ccc(CCNC2CCN(Cc3ccccc3)CC2)cc1 = 0%
• Cc1n(-c2ccccc2)c2c([n+]1C)C(=O)c1ccccc1C2=O = 33.3%
• CC[C@H]1CN2CCc3cc(OC)c(OC)cc3[C@@H]2C[C@@H]1C[C@H]1NCCc2cc(OC)c(OC)cc21 = 23.8%
• CN1C[C@@H](CSc2ccccn2)C=C2c3cccc4[nH]cc(c34)C[C@H]21 = 4.88%
• C=CC1CN2CCC1CC2C(OC(=O)c1ccco1)c1ccnc2ccccc12 (centres undefined) = 0%
• CC[C@H]1CN2CCc3cc(OC)c(OC)cc3[C@@H]2C[C@@H]1C[C@@H]1NCCc2cc(OC)c(OC)cc21 = 37%
• CC[C@H]1CN2CC[C@H]1C[C@H]2[C@H](O)c1ccnc2ccccc12 = 5.17%
• CCN(CC)S(=O)(=O)c1ccc(C(=O)c2c(C)c(C(=O)C(F)(F)F)c3ccccn23)cc1 = 3.12%
• CC1=CC(=O)OC[C@]23CCC(C)=C[C@H]2O[C@@H]2C[C@@H](OC(=O)C=CC=CC(=O)OCC1)[C@@]3(C)[C@]21CO1 = 22.6%
• Clc1cccc(CNC2CCN(CCc3ccccc3)CC2)c1 = 0.781%
• CCC1CN2CCc3cc(OC)c(OC)cc3C2CC1CC1NCCc2cc(OC)c(OC)cc21 (centres undefined) = 33.3%
• CCc1cc2c(cc1-c1csc(NC(=N)N)n1)C(C)(C)CCC2(C)C = 5.16%
• C[C@@H]1C[C@@H]([C@H](O)CC2CC(=O)NC(=O)C2)C(=O)[C@@H](C)C1 = 19.7%
• CC[C@H]1CN2CC[C@@H]1C[C@@H]2[C@@H](O)c1ccnc2ccc(OC)cc12 = 2.16%
